Listed here: items and their measured Remaining gluconoyl-label, pH 6.8 after 15 h at 50° C..
- Test system: N-terminally gluconoyl-labelled Beltide-1 derivative peptide PP6
- protocol.details: Boron-containing reagents to modulate reversibility (heat-accelerated deacylation)
- Type: physicochemical
- conditions.used: 5 mM additive, 50 μM peptide, 50 mM phosphate/KOH buffer

Q: For the compound OB(O)O [boric acid, Boric acid] , give its measured Remaining gluconoyl-label, pH 6.8 after 15 h at 50° C. value.
Result: ~8%

Q: Identify measured Remaining gluconoyl-label, pH 6.8 after 15 h at 50° C. associated with CB(O)O [methylboronic acid]
Result: ~6%

Q: # return recorded Remaining gluconoyl-label, pH 6.8 after 15 h at 50° C. for entry O=Cc1ccccc1B(O)O [2-formylphenylboronic acid]
Result: ~95%

Q: Output Remaining gluconoyl-label, pH 6.8 after 15 h at 50° C. of OB(O)c1ccccc1 [phenylboronic acid]
Result: ~31%

Q: Consider the compound O=Cc1ccc(B(O)O)cc1 [4-formylphenylboronic acid] and give its recorded Remaining gluconoyl-label, pH 6.8 after 15 h at 50° C..
Result: ~46%

Q: Consider the compound OB1OCc2cc(F)ccc21 [tavaborole] and give its recorded Remaining gluconoyl-label, pH 6.8 after 15 h at 50° C..
Result: ~87.9%

---

- Test system: N-terminally gluconoyl-labelled Beltide-1 derivative peptide PP6
- protocol.details: Boron-containing reagents to modulate reversibility (heat-accelerated deacylation)
- Assay type: physicochemical
- conditions.used: 5 mM additive, 50 μM peptide, 50 mM HEPES/NaOH buffer
compounds and their reported Remaining gluconoyl-label, pH 7.5 after 15 h at 50° C.

Below are worked cases with known answers.
OB(O)c1ccccc1 : ~83%
CB(O)O : ~59%
OB1OCc2cc(F)ccc21 : ~87%
O=Cc1ccccc1B(O)O : ~99%
OB(O)O : ~69%

Now for another entry.
Q: Return Remaining gluconoyl-label, pH 7.5 after 15 h at 50° C. for the following compound: O=Cc1ccc(B(O)O)cc1
Result: ~95%
